Target: T1, ExoI Arg327Ala variant (Escherichia coli, UniProt P04995 1-475)
T1 construct: also called R327A
T1 sequence: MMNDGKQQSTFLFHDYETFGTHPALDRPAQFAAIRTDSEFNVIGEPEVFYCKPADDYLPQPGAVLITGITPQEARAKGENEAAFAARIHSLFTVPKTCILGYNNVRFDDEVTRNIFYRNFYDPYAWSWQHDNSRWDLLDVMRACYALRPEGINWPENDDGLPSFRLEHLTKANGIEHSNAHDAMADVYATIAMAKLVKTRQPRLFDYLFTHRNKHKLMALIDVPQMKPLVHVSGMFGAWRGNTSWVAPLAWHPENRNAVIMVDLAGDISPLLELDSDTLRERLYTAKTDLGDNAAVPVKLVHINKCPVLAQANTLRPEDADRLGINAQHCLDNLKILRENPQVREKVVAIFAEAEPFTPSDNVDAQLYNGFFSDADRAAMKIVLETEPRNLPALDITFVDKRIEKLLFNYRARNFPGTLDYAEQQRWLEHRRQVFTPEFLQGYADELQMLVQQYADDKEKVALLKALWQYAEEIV
Test: fluorescence anisotropy equilibrium binding (Kd,app), ExoI variant titrated into fluorescein-labeled peptide
Where no end group is shown, it is not given here. fluorescein = fluorescein moiety attached to the N-terminus of the peptide (N-terminal fluorescein label)
attribute_measured: Kd

Kd lookup needed for fluorescein-WMDFDDDIPF (also called F-SSB-Ct; F-WT) [fluorescein-labeled SSB C-terminal peptide (fluorescein-WMDFDDDIPF)] , thanks. 270 nM

Data credit: patent US8415393B2
